Each entry below lists one item and its recorded melting point value.

# smiles.entry, melting point
rows = [
    ("N#Cc1cc(C#N)cc(Oc2cc(CC(=O)Nc3ccccc3)ccc2Cl)c1", "199 to 201.9 °C"),
    ("Cc1cc(S(N)(=O)=O)ccc1NC(=O)Cc1ccc(C)c(C(=O)c2cc(C#N)ccc2C)c1", "224.3 to 228.1 °C"),
    ("CCCCC(=O)NS(=O)(=O)c1ccc(NC(=O)Cc2ccc(Cl)c(Oc3cc(Cl)cc(C#N)c3)c2F)c(Cl)c1.[Na]", "157.6 to 159.2 °C"),
    ("CCc1ccc(CC(=O)Nc2ccccc2Cl)cc1Oc1cc(C#N)cc(F)c1Cl", "142.1 to 142.8 °C"),
    ("Cc1cc(S(N)(=O)=O)ccc1NC(=O)Cc1ccc(Cl)c(Oc2cc(C#N)cc(C#N)c2)c1F", "248.4 to 250.8 °C"),
    ("CCc1cc(CC(=O)Nc2ccc(S(N)(=O)=O)cc2Cl)cc(Oc2cc(C#N)ccc2Cl)c1", "204 to 207 °C"),
    ("COc1ccc(CC(=O)Nc2ccccc2Cl)cc1Oc1cc(Cl)cc(C#N)c1", "175.7 to 178.3 °C"),
    ("Cc1ccc(CC(=O)Nc2ccccc2Cl)c(F)c1Oc1cc(C#N)cc(C(F)F)c1", "163.3 to 164.4 °C"),
]

* * *

Each entry below lists one item and its recorded melting point value.

# smiles.entry, melting point
data = [
    ("CC(C)c1ccc(CC(=O)Nc2ccc(S(N)(=O)=O)cc2)cc1Oc1cc(Cl)ccc1Br", "204.1 to 206.7 °C"),
    ("CNS(=O)(=O)c1ccc(NC(=O)Cc2ccc(Cl)c(Oc3cc(Cl)cc(C#N)c3)c2F)c(C)c1", "204.4 to 207.3 °C"),
    ("Cc1cc(S(N)(=O)=O)ccc1NC(=O)Cc1ccc(Cl)c(Oc2cc(C#N)cc(C(F)(F)F)c2)c1", "211.6 to 214.6 °C"),
    ("N#Cc1cc(C#N)cc(Sc2cc(CC(=O)Nc3ccc(S(N)(=O)=O)cc3)ccc2Cl)c1", "247.9 to 250.9 °C"),
    ("COc1ccc(NC(=O)Cc2ccc(C)c(Oc3cc(Cl)cc(C#N)c3)c2)c(C)n1", "168.3 to 170.4 °C"),
    ("Cc1cc(S(=O)(=O)CCC#N)ccc1NC(=O)Cc1ccc(C)c(Oc2cc(Cl)cc(C#N)c2)c1", "186.1 to 188 °C"),
    ("COc1ccc(CC(=O)Nc2ccc(S(N)(=O)=O)cc2)cc1Oc1cc(C#N)ccc1Cl", "252.3 to 254.3 °C"),
    ("CC(C)[C@H](N)C(=O)NS(=O)(=O)c1ccc(NC(=O)Cc2ccc(Cl)c(Oc3cc(Cl)cc(C#N)c3)c2F)c(Cl)c1.[Na]", "219.4 to 220.2 °C"),
    ("Cc1cc(S(N)(=O)=O)ccc1NC(=O)Cc1cc(Oc2cccc(C#N)c2)c2occc2c1", "218.9 to 220 °C"),
    ("Cc1cc(CC(=O)Nc2ccc(S(N)(=O)=O)cc2)cc(Oc2cc(C#N)ccc2Cl)c1", "235.9 to 236.7 °C"),
    ("CCc1ccc(CC(=O)Nc2ccc(S(N)(=O)=O)cc2Cl)cc1Oc1cc(Cl)cc(C#N)c1", "181.1 to 183.9 °C"),
    ("Cc1ccc(CC(=O)Nc2ccccc2Cl)cc1Oc1cc(Cl)ccc1Br", "133.9 to 135.9 °C"),
    ("CCc1ccc(CC(=O)Nc2ccc(S(N)(=O)=O)cc2)cc1Oc1cc(Cl)cc(Br)c1", "216.1 to 221.3 °C"),
    ("Cc1cc(CC(=O)Nc2ccc(S(N)(=O)=O)cc2Cl)cc(Oc2cc(Cl)cc(C#N)c2)c1C", "224.3 to 225.7 °C"),
    ("CCc1ccc(CC(=O)Nc2ccccc2Cl)cc1Oc1c(Cl)cccc1Cl", "107 to 110.5 °C"),
    ("Cc1cc(S(N)(=O)=O)ccc1NC(=O)Cc1ccc(C)c(Oc2cc(Cl)cc(C#N)c2)c1F", "230 to 232.2 °C"),
    ("CCc1ccc(CC(=O)Nc2ccc(S(N)(=O)=O)cc2)cc1Oc1cc(C#N)cc(C#N)c1Cl", "119.7 to 123.3 °C"),
    ("Cc1ccc(CC(=O)Nc2ccc(S(N)(=O)=O)cc2Cl)cc1Oc1cc(C#N)cc(C#N)c1", "209.9 to 211.5 °C"),
    ("N#Cc1cc(Oc2c(Cl)ccc(CC(=O)Nc3ccc(S(N)(=O)=O)cc3)c2F)cc(C(F)F)c1", "214 to 218 °C"),
    ("Cc1cc(C#N)cc(C)c1Oc1cc(CC(=O)Nc2ccccc2Cl)ccc1Cl", "183.9 to 185.1 °C"),
    ("Cc1ccc(CC(=O)Nc2ccccc2Cl)cc1Oc1cc(F)cc(C#N)c1", "131.1 to 132.2 °C"),
    ("CCc1ccc(CC(=O)Nc2ccc(S(N)(=O)=O)cc2)cc1Oc1cc(C#N)cc(F)c1Cl", "167.9 to 170.5 °C"),
    ("Cc1cc(S(N)(=O)=O)ccc1NC(=O)Cc1ccc(Cl)c(Oc2cc(Br)cc(C#N)c2)c1F", "246 to 250.6 °C"),
    ("Cc1cc(N2CCS(=O)(=O)CC2)ccc1NC(=O)Cc1ccc(C)c(Oc2cc(Cl)cc(C#N)c2)c1", "64.8 to 65.4 °C"),
    ("Cc1cc(N(C)S(C)(=O)=O)ccc1NC(=O)Cc1ccc(C)c(Oc2cc(Cl)cc(C#N)c2)c1", "184 to 184.8 °C"),
    ("Cc1ccc(CC(=O)Nc2ccccc2Cl)cc1Oc1cc(C#N)cc(C#N)c1", "175.1 to 177.5 °C"),
    ("Cc1cc(S(N)(=O)=O)ccc1NC(=O)Cc1ccc(C)c(Oc2cc(Cl)cc(C#N)c2)c1", "192.8 to 194.1 °C"),
    ("CCc1ccc(CC(=O)Nc2ccc(S(N)(=O)=O)cc2C)cc1Oc1cc(C#N)cc(F)c1Cl", "217.6 to 220.4 °C"),
    ("CCc1ccc(CC(=O)Nc2ccc(S(N)(=O)=O)cc2Cl)cc1Oc1cc(C#N)cc(C#N)c1Cl", "180.3 to 183.1 °C"),
    ("COc1ccc(CC(=O)Nc2ccc(S(N)(=O)=O)cc2)cc1Oc1cc(C#N)cc(C(F)F)c1", "213.9 to 214.2 °C"),
    ("Cc1cc(CC(=O)Nc2ccc(S(N)(=O)=O)cc2C)cc(Oc2cc(Cl)cc(C#N)c2)c1", "184.8 to 186 °C"),
]
